- Experimental System: N-type Ca2+ channels in IMR-32 cells (Homo sapiens, UniProt Q00975)
- Construct: host or cells: IMR-32 cells, differentiated with dibutyryl cAMP and bromodeoxyuridine
- Sequence (Q00975 whole entry): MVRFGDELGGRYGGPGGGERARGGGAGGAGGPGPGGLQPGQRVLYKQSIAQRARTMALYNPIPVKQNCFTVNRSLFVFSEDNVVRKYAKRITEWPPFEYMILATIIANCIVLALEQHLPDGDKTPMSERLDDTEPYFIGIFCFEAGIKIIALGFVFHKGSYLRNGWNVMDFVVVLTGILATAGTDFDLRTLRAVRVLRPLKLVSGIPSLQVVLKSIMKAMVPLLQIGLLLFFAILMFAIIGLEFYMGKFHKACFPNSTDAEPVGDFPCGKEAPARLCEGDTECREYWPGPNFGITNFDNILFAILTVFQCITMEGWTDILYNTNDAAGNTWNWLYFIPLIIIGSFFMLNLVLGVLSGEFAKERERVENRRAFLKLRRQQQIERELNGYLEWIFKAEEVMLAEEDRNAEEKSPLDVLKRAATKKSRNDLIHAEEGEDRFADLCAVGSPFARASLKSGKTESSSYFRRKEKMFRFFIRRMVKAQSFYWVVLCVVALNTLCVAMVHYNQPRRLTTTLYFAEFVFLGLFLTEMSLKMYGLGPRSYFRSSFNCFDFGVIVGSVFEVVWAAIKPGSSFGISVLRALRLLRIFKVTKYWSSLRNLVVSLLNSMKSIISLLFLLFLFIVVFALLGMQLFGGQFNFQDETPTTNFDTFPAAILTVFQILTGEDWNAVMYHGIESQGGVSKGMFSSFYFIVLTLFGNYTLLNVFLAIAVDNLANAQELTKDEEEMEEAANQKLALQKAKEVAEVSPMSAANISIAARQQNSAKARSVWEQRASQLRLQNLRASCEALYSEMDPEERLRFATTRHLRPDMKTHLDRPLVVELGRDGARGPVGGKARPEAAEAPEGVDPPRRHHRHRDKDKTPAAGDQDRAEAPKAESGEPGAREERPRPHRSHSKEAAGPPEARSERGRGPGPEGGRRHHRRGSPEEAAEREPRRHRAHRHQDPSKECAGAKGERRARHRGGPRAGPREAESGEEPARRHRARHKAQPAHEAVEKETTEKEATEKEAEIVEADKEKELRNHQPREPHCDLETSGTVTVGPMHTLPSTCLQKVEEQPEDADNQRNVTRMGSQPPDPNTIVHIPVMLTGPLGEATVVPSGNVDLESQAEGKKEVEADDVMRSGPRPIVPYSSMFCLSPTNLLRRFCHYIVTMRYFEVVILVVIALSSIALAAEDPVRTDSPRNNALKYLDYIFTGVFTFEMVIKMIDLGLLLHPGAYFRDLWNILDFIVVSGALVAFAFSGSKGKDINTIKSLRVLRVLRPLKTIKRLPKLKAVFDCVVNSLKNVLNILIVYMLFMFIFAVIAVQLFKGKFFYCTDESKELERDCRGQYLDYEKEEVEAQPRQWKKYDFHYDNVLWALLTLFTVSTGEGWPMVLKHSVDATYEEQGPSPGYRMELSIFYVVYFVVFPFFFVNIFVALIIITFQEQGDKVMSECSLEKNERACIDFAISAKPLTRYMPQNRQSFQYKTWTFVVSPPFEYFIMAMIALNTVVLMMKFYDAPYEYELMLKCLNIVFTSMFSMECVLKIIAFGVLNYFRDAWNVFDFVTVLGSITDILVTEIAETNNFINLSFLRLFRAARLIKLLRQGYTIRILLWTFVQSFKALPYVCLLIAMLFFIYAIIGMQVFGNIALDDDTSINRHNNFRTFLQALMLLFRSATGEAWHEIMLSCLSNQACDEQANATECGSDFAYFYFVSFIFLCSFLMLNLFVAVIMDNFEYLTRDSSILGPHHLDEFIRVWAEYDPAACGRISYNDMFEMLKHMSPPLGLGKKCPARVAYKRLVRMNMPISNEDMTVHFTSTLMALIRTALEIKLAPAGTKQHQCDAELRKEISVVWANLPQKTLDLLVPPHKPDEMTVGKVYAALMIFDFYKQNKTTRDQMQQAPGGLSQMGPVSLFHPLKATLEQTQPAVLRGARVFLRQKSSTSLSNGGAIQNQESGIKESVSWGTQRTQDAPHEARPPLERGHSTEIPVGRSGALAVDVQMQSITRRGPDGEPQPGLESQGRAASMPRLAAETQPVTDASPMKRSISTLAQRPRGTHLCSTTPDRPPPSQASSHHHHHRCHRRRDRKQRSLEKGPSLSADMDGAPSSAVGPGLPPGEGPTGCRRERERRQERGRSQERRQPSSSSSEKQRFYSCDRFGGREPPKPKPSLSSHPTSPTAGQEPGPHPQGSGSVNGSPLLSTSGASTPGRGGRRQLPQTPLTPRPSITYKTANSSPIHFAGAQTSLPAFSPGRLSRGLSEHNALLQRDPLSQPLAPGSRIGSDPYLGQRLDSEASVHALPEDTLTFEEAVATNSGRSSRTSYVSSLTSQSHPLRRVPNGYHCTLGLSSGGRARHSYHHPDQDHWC
- Sequence (P54289 25-956 partner limits assumed): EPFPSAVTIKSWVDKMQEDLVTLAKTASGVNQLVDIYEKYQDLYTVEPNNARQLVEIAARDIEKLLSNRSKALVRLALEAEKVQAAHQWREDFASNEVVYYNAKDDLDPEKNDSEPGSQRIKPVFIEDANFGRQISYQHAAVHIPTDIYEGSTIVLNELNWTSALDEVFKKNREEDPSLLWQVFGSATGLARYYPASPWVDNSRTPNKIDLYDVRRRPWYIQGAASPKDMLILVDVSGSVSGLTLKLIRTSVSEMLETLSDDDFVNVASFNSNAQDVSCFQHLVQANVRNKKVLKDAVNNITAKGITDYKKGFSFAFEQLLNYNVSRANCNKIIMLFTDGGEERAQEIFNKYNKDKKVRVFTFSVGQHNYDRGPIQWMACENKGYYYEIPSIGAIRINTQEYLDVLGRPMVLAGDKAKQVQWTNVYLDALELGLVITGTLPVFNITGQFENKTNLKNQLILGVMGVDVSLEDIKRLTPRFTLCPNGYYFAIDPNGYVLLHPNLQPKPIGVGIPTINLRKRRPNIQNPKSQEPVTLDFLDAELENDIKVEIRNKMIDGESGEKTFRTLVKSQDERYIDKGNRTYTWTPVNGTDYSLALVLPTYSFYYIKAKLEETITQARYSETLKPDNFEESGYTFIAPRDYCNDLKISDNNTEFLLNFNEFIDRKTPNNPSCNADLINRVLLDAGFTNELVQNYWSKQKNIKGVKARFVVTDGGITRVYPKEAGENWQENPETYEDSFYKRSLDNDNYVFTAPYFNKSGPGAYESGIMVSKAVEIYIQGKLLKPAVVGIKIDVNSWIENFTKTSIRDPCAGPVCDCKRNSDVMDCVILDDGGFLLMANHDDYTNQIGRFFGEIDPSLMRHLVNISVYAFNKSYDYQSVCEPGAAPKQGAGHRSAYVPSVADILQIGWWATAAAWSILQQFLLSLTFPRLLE
- Sequence (P54289 957-1103 partner limits assumed): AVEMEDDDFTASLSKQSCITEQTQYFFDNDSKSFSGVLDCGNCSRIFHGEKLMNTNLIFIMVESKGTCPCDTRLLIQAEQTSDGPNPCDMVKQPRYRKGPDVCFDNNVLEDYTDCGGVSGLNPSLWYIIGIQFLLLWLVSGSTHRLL
- Sequence (P54284 whole entry partner): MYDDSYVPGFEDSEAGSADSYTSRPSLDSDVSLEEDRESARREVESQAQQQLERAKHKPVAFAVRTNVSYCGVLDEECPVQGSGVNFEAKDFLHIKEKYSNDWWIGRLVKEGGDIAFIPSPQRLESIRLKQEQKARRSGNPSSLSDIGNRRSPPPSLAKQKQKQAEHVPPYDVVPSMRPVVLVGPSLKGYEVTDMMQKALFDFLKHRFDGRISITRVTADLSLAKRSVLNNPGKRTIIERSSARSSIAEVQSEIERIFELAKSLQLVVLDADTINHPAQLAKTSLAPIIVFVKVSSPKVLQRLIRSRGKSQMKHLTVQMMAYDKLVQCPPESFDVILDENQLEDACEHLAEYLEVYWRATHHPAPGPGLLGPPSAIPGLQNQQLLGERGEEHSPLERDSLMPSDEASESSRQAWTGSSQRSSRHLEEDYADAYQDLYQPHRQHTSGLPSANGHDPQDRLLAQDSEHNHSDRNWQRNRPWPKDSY
- Method Description: Inhibition of N-type calcium flux in IMR-32 cells (Indo-1 fluorescence, nitrendipine present)
- Type: cell-based
- Recorded Conditions: IMR-32
*1 amine or outer side, *2 acyl side, *3 side chain or, on linkers, in order; H or OH if unused. Where a SMILES comes first, the peptide text is derived from it. The star is where a group is joined. Piperidide = C1CCN(*)CC1; CO = O=C([*:1])[*:2]; Bn = c1ccc(C*)cc1; OtBu = CC(C)(C)O*
Measured Metric: inhibition at 10 µM (%)

INSERT INTO results (compound, experimental_system, measured_metric, value_measured) VALUES
  ('CC(C)C[C@H](NC(=O)N1CCCCCC1)C(=O)N[C@@H](Cc1ccc(OCc2ccccc2)cc1)C(=O)NCc1ccc(CN)cc1', 'N-type Ca2+ channels in IMR-32 cells (Homo sapiens, UniProt Q00975)', 'inhibition at 10 µM', 75),
  ('CC(C)CC(NC(=O)N1CCCCCC1)C(=O)NC(Cc1ccc(OCc2ccccc2)cc1)C(=O)NC(C)CNCC(C)N (stereo not shown)', 'N-type Ca2+ channels in IMR-32 cells (Homo sapiens, UniProt Q00975)', 'inhibition at 10 µM', 23),
  ('CC(C)C[C@H](NC(=O)N1CCCCCC1)C(=O)N[C@@H](Cc1ccc(OCc2ccccc2)cc1)C(=O)N1CCN(CCO)CC1', 'N-type Ca2+ channels in IMR-32 cells (Homo sapiens, UniProt Q00975)', 'inhibition at 10 µM', 79),
  ('CC(C)C[C@H](NC(=O)N1CCCCCC1)C(=O)N[C@@H](Cc1ccc(OCc2ccccc2)cc1)C(=O)N1CCc2ccccc2C1', 'N-type Ca2+ channels in IMR-32 cells (Homo sapiens, UniProt Q00975)', 'inhibition at 10 µM', 81),
  ('CC(C)C[C@H](NC(=S)NC1CCCCC1)C(=O)N[C@@H](Cc1ccc(OCc2ccccc2)cc1)C(=O)OC(C)(C)C', 'N-type Ca2+ channels in IMR-32 cells (Homo sapiens, UniProt Q00975)', 'inhibition at 10 µM', 63),
  ('CC(C)C[C@H](NS(=O)(=O)N1CCOCC1)C(=O)N[C@@H](Cc1ccc(OCc2ccccc2)cc1)C(=O)OC(C)(C)C', 'N-type Ca2+ channels in IMR-32 cells (Homo sapiens, UniProt Q00975)', 'inhibition at 10 µM', 95),
  ('CC(C)C[C@H](NC(=O)N1CCCCCC1)C(=O)N[C@@H](Cc1ccc(OCc2cccnc2)cc1)C(=O)OC(C)(C)C', 'N-type Ca2+ channels in IMR-32 cells (Homo sapiens, UniProt Q00975)', 'inhibition at 10 µM', 85),
  ('CC(C)C[C@H](NC(=O)N1CCCCCC1)C(=O)N[C@@H](Cc1ccc(OCc2ccccc2)cc1)C(=O)NC1CC1', 'N-type Ca2+ channels in IMR-32 cells (Homo sapiens, UniProt Q00975)', 'inhibition at 10 µM', 82),
  ('COc1ccc(C[C@H](NC(=O)[C@H](CC(C)C)NC(=O)N2CCCCCC2)C(=O)OC(C)(C)C)cc1', 'N-type Ca2+ channels in IMR-32 cells (Homo sapiens, UniProt Q00975)', 'inhibition at 10 µM', 86),
  ('CC(C)C[C@H](NC(=O)N1CCCCCC1)C(=O)N[C@@H](Cc1ccc(OCc2ccccc2)cc1)C(=O)Nc1cccnc1', 'N-type Ca2+ channels in IMR-32 cells (Homo sapiens, UniProt Q00975)', 'inhibition at 10 µM', 83),
  ('CC(C)C[C@H](NC(=O)N1CCCCC1)C(=O)N[C@@H](Cc1ccc(OCc2ccccc2)cc1)C(=O)OC(C)(C)C [Example 33] ({Piperidide-CO}-Leu-Tyr(Bn)-OtBu)', 'N-type Ca2+ channels in IMR-32 cells (Homo sapiens, UniProt Q00975)', 'inhibition at 10 µM', 79),
  ('CC(C)C[C@H](NS(=O)(=O)N1CCCCC1)C(=O)N[C@@H](Cc1ccc(OCc2ccccc2)cc1)C(=O)OC(C)(C)C', 'N-type Ca2+ channels in IMR-32 cells (Homo sapiens, UniProt Q00975)', 'inhibition at 10 µM', 86),
  ('CC(C)C[C@H](NC(=O)N1CCCCCC1)C(=O)N[C@@H](Cc1ccc(OCc2ccccc2)cc1)C(=O)NC(C)(C)C', 'N-type Ca2+ channels in IMR-32 cells (Homo sapiens, UniProt Q00975)', 'inhibition at 10 µM', 95);
